Target: PARP (Mus musculus)
Construct: endogenous in cells; host or cells: L1210 murine leukaemia cells, permeabilised by hypotonic buffer and cold shock
Experiment: PARP inhibition assay ([32P]-NAD incorporation into TCA-precipitated poly(ADP-ribose) in permeabilised L1210 cells, oligonucleotide activated)
Format: biochemical, L1210 murine leukaemia cells
Conditions: 30 μM; read-out: % Inhibition (PARP)
Answer n if inhibition at 30 µM is under 60%, and y if it is 60% or more.

Exercise: Assess whether reported inhibition at 30 µM for NC(=O)c1cccc(OCCCCCn2cnc3c(Cl)ncnc32)c1 [NU1023] sits at 60% or higher.
Key: n

Exercise: Would you kindly repeat that for COc1cccc(C(N)=O)c1 [3-methoxybenzamide, reference compound] ?
Key: y

Exercise: Would you kindly repeat that for NC(=O)c1cccc(OCCc2ccccc2)c1 [NU1048, 3-(Phenethyl)oxybenzamide] ?
Key: n

Exercise: Would you kindly repeat that for NC(=O)c1cccc(N)c1 [3-aminobenzamide] ?
Key: y

Exercise: Would you kindly repeat that for O=c1[nH]cnc2c(O)cccc12 [NU1026, 8-hydroxyquinazolin-4-[3H]one] ?
Key: y

Exercise: Would you kindly repeat that for NC(=O)c1cccc(OCCCCCCCCCCCCn2cnc3c(N)ncnc32)c1 [NU1029, 3-(12-adenos-9-yldodecyloxy)benzamide] ?
Key: n

Exercise: Would you kindly repeat that for NC(=O)c1cccc(OCc2ccc(C(F)(F)F)cc2)c1 [NU1036, 3-(4-Trifluoromethylbenzyloxy)benzamide] ?
Key: n

----------
Assay: half life of temozolomide in culture
Type: physicochemical
Measured Metric: half-life

Exercise: Look up half-life for this compound: Cn1nnc2c(C(N)=O)ncn2c1=O [TM, temozolomide]
Key: ~40 min

----------
Assay: in vitro
Settings: mouse, l1210 cells
So I've got a bunch of compounds here, and I need their CC50 at 24 h values.

Exercise: Look up CC50 at 24 h for this compound: NC(=O)c1cccc(N)c1 [3-aminobenzamide]
Key: 14 mM

Exercise: Would you kindly repeat that for Cc1nc2c(O)cccc2c(=O)[nH]1 [NU1025, 8-Hydroxy-2-methylquinazolin-4-[3H]-one] ?
Key: 1.6 mM

Exercise: Would you kindly repeat that for NC(=O)c1ccccc1 [BENZAMIDE, benzamide] ?
Key: 6 mM

----------
Target: PARP (Mus musculus, UniProt P11103)
Construct: endogenous in cells; host or cells: L1210 murine leukaemia cells, permeabilised by hypotonic buffer and cold shock
Sequence (P11103 whole entry): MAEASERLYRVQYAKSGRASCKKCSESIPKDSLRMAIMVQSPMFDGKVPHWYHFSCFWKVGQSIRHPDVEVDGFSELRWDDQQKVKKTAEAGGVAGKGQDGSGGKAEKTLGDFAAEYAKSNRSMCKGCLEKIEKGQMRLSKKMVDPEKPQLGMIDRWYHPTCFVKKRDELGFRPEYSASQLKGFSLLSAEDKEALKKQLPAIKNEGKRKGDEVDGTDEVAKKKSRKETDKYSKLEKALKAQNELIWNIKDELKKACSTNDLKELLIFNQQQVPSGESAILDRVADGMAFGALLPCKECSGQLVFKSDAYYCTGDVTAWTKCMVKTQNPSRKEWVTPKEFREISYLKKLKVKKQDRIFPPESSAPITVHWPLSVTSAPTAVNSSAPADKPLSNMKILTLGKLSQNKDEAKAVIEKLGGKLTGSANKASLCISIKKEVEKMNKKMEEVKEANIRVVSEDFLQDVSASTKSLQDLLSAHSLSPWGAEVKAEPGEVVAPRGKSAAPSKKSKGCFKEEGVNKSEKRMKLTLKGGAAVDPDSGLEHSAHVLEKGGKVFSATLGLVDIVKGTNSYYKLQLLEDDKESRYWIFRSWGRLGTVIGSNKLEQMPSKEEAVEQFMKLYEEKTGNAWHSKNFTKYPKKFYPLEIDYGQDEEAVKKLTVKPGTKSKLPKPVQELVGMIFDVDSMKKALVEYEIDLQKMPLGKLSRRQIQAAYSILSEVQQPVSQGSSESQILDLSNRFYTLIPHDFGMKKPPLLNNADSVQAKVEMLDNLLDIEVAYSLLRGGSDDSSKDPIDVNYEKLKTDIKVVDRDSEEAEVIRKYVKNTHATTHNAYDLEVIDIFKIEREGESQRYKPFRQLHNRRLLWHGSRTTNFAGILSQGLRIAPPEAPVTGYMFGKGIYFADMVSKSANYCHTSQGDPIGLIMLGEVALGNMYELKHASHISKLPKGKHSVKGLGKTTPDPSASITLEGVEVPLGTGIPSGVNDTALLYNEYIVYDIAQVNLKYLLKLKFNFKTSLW
Assay: PARP inhibition assay ([32P]-NAD incorporation into TCA-precipitated poly(ADP-ribose) in permeabilised L1210 cells, oligonucleotide activated)
Format: biochemical, L1210 murine leukaemia cells
Settings: 100 μM; read-out: % Inhibition (PARP)
Answer f if inhibition at 100 µM is under 80%, and t if it is 80% or more.

Exercise: Assess whether reported inhibition at 100 µM for O=c1[nH]cnc2c(O)cccc12 [NU1026, 8-hydroxyquinazolin-4-[3H]one] sits at 80% or higher.
Key: t

Exercise: Would you kindly repeat that for CCCCCOc1cccc(C(N)=O)c1 [NU1039, 3-pentyloxybenzamide] ?
Key: f

Exercise: Would you kindly repeat that for NC(=O)c1cccc(OCCCCCCCCCCCCn2cnc3c(N)ncnc32)c1 [NU1029, 3-(12-adenos-9-yldodecyloxy)benzamide] ?
Key: f

Exercise: Would you kindly repeat that for COc1cccc(C(N)=O)c1 [3-methoxybenzamide, reference compound] ?
Key: t

Exercise: Would you kindly repeat that for NC(=O)c1cccc(OCCc2ccccc2)c1 [NU1048, 3-(Phenethyl)oxybenzamide] ?
Key: f

Exercise: Would you kindly repeat that for NC(=O)c1cccc(OCc2ccc(C(F)(F)F)cc2)c1 [NU1036, 3-(4-Trifluoromethylbenzyloxy)benzamide] ?
Key: f

Exercise: Would you kindly repeat that for CC(C)(C)c1nc2c(C(N)=O)cccc2o1 [NU1040, 2-t-butylbenzoxazole-4-carboxamide] ?
Key: t

Exercise: Would you kindly repeat that for NC(=O)c1cccc2c1OCO2 [NU1034, 2,3-methylenedioxy benzamide] ?
Key: t

Exercise: Would you kindly repeat that for NC(=O)c1cccc(OCc2ccc3c(c2)OCO3)c1 [NU1020, 3-(Piperonyloxy)benzamide] ?
Key: t

Exercise: Would you kindly repeat that for CC(=O)Nc1ccc(COc2cccc(C(N)=O)c2)cc1 [NU1030, 3-(N-acetyl-4-aminobenzyloxy)benzamide] ?
Key: t

Exercise: Would you kindly repeat that for NC(=O)c1cccc(OCCCCCn2cnc3c(N)ncnc32)c1 [NU1024, 3-(5-Adenos-9-ylpentyloxy)benzamide] ?
Key: f

Exercise: Would you kindly repeat that for NC(=O)c1cccc(OCc2ccccc2)c1 [NU1005, 3-benzyloxybenzamide] ?
Key: f

Exercise: Would you kindly repeat that for NC(=O)c1cccc(OCCCCCn2cnc3c(Cl)ncnc32)c1 [NU1023] ?
Key: f

Exercise: Would you kindly repeat that for NC(=O)c1cccc(OCc2ccc(N)cc2)c1 [NU1016, 3-(4-aminobenzyloxy)benzamide] ?
Key: t
